Cited source for all entries: patent US20260102383A1

- Target system: human LPAR1 (Homo sapiens)
- Construct: host or cells: TangoEDG2-bla U2OS cells
- Sequence (Q92633 whole entry): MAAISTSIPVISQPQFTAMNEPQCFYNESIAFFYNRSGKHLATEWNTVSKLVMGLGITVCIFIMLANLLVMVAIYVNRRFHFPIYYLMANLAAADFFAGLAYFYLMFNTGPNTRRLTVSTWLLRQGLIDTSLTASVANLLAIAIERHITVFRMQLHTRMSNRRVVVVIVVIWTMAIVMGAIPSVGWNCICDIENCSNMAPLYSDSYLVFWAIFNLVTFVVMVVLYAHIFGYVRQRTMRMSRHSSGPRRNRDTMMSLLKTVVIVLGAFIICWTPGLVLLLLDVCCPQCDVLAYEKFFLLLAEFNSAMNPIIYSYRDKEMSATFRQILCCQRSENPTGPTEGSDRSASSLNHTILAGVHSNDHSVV
- Assay explanation: Arrestin assay (Arrestin Reporter EDG2-bla U2OS), inhibition of LPA-stimulated signal
- Format: cell-based
- Stated conditions: TangoEDG2-bla U2OS cells expressing human LPAR1; 0.25 μM LPA; read-out: Arrestin Reporter EDG2-bla U2OS Human Merged IC50
- Experimental: The inhibitory activity of compounds 15, 62, 77, 84 and 169 against LPAR1 was measured using an Arrestin assay in U2OS cells expressing human LPAR1. FreeStyle media was warmed in a 37° C. water bath. Cryo-preserved vial(s) of TangoEDG2-bla U2OS cells were rapidly thawed in a 37° C. water bath. […] Plate(s) were read on an Envision Plate Reader (Perkin Elmer) to read fluorescence; excitation at 409 nm with emission at 460 nm and 530 nm. […]
pIC50: −log10 of the molar value.
Classify by measured pIC50: 1 if it is equal to or exceeds 7, 0 if it is smaller.

Molecule	Class name
COc1cccc(C(CN2CCC(C(=O)Nc3ccc(Cl)cc3OC(F)F)(n3nccc3C(C)C)CC2)C(=O)O)c1 (centres unmarked)	1
CC(C)c1ccnn1C1(C(=O)Nc2ccc(Cl)cc2OC(F)F)CCN([C@H]2C[C@](C#N)(C(=O)O)C2)CC1	0
CC(C)c1ccnn1C1(C(=O)Nc2ccc(Cl)cc2OC(F)F)CCN(CC2(C(=O)O)CCC(=O)CC2)CC1	1
COC1CCC(C(CN2CCC(C(=O)Nc3ccc(Cl)cc3OC(F)F)(n3nccc3C(C)C)CC2)C(=O)O)CC1 (centres unmarked)	1
CC[C@H](CN1CCC(C(=O)Nc2ccc(Cl)cc2OC(F)F)(n2nccc2C(C)C)CC1)C(=O)O	1
CC(C)c1c(F)cnn1C1(C(=O)Nc2ccc(Cl)cc2OC(F)F)CCN(C[C@]2(C(=O)O)CC[C@H](O)CC2)CC1	0
CC(C)c1ccnn1C1(C(=O)Nc2ccc(Cl)cc2OC(F)F)CCN(CC2(C(=O)O)CC3(COC3)C2)CC1	1
CC(C)c1ccnn1C1(C(=O)Nc2ccc(Cl)cc2OC(F)F)CCN(CC(COCC(F)(F)F)C(=O)O)CC1 (centres unmarked)	1
COc1ccc([C@H](CN2CCC(C(=O)Nc3ccc(Cl)cc3OC(F)F)(n3nccc3C(C)C)CC2)C(=O)O)cc1	1
COc1cnn(CC(CN2CCC(C(=O)Nc3ccc(Cl)cc3OC(F)F)(n3nccc3C(C)C)CC2)C(=O)O)c1 (centres unmarked)	1
